B1: TMEM175 (parent)
chain: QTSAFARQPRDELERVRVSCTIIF

Variants of: B1
Experiment: protein stability index of a GFP-peptide fusion (GPS, HEK-293T) (PSI 1-6); higher = more stable;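 note: lentivirally expressed fusions sorted by FACS into six bins by GFP to DsRed ratio, PSI derived from sequencing read proportions per bin multiplied by bin number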
Settings: c terminus: a fixed tail appended
Property name: protein stability index
# print the numeric value only

Examples from the recorded data:
R7F    2.53
R10C    2.79
I22Y    1.69
V16R    2.47
V18W    2.19
R7Y    1.58

Query: Indicate its recorded protein stability index; the variant in question is "F24H"
Response: 2.01
